TARGET ENTITY: EGFR del19 T790M C797S protein in Ba/F3 cells (Homo sapiens, UniProt P00533, C797S/DEL746-750/T790M)
Sequence (P00533 with tags, fused parts or gaps C797S/DEL746-750/T790M limits assumed): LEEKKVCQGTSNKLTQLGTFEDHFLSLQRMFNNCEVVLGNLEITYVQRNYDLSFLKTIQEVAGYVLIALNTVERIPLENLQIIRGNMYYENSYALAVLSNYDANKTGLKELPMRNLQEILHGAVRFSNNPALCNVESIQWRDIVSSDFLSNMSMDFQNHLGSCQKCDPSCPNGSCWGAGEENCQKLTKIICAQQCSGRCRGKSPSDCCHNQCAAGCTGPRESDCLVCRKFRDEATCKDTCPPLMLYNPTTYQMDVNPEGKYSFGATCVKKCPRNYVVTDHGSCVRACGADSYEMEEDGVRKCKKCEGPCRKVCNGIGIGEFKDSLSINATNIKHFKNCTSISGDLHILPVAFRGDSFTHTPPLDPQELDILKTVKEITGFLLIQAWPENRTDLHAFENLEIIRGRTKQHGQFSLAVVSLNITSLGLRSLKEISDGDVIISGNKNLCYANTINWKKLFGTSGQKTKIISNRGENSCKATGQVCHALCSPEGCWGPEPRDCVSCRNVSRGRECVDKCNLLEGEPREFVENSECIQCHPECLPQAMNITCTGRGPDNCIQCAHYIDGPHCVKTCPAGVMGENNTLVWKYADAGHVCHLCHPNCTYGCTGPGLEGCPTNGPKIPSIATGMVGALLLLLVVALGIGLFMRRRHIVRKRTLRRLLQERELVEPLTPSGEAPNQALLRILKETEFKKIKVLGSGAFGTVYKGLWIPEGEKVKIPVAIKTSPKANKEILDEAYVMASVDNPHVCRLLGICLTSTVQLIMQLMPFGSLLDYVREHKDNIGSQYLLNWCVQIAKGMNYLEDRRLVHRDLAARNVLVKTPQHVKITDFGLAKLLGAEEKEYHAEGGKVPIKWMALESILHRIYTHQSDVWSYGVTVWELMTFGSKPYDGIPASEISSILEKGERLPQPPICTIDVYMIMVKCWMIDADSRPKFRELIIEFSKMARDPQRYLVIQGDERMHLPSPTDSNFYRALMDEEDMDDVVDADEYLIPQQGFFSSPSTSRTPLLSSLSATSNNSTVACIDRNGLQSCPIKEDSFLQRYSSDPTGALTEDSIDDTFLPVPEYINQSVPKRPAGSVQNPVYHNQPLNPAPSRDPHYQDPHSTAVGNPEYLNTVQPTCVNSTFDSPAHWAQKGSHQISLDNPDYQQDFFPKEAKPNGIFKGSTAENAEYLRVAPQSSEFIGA
METHOD: pEGFR assay (AlphaScreen Surefire, EGFR Tyr1068 phosphorylation)
Field: label. Allowed values: true (IC50 < 6 nM) or false (IC50 >= 6 nM).

Input line: State whether 6 nM exceeds IC50 recorded for COc1ccccc1-c1cc(C(=O)/N=c2\[nH]c3cc(CN4CC[C@H](OC)C4)ccc3n2[C@H]2CC[C@@H](O)CC2)ccn1 [I-151] .
Output line: true

Input line: State whether 6 nM exceeds IC50 recorded for CNC(=O)Cc1ccc2c(c1)[nH]/c(=N\C(=O)c1ccnc(-c3cccnc3)c1)n2CC(C)(C)O [I-131] .
Output line: false

Input line: State whether 6 nM exceeds IC50 recorded for CC(C)(O)Cn1/c(=N/C(=O)c2ccnc(-c3cccs3)c2)[nH]c2ccccc21 [I-051] .
Output line: false

Input line: State whether 6 nM exceeds IC50 recorded for Cn1cc(-c2cc(C(=O)/N=c3\[nH]c4ccccc4n3[C@H]3CC[C@@H](O)CC3)cc(Cl)n2)cn1 [I-146] .
Output line: true

Input line: State whether 6 nM exceeds IC50 recorded for Cn1cc(-c2cc(C(=O)/N=c3\[nH]c4cc(CN5CCOCC5)ccc4n3[C@H]3CC[C@@H](O)CC3)cc(C#N)n2)cn1 [I-145] .
Output line: true

Input line: State whether 6 nM exceeds IC50 recorded for CC(C)(O)Cn1/c(=N/C(=O)c2ccnc(-n3ccc4cccnc43)c2)[nH]c2ccccc21 [I-188] .
Output line: false

Input line: State whether 6 nM exceeds IC50 recorded for Cc1cc2c(cc1N1CCN(C(C)C)CC1)[nH]/c(=N\C(=O)c1ccnc(-c3cnn(C)c3)c1)n2CC(C)(C)O [I-69] .
Output line: false

Input line: State whether 6 nM exceeds IC50 recorded for COCCN1CCC(c2ccc3c(c2)[nH]/c(=N\C(=O)c2ccnc(-c4cnn(C)c4C)c2)n3CC(C)(C)O)CC1 [I-045] .
Output line: true

Input line: State whether 6 nM exceeds IC50 recorded for COc1ccccc1-c1cc(C(=O)/N=c2\[nH]c3ccccc3n2[C@@H]2CC[C@@H](O)[C@@H](O)C2)ccn1 [I-234] .
Output line: true

Input line: State whether 6 nM exceeds IC50 recorded for COC(=O)Cc1ccc2c(c1)[nH]/c(=N\C(=O)c1ccnc(-c3cnn(C)c3)c1)n2CC(C)(C)O [I-055] .
Output line: false

Input line: State whether 6 nM exceeds IC50 recorded for CC(C)(O)Cn1/c(=N/C(=O)c2ccnc(-n3cnc4cccnc43)c2)[nH]c2ccccc21 [I-040] .
Output line: true

Input line: State whether 6 nM exceeds IC50 recorded for CN(C)c1ccc2c(c1)[nH]/c(=N\C(=O)c1ccnc(-c3cccnc3)c1)n2CC(C)(C)O [I-79] .
Output line: false

Input line: State whether 6 nM exceeds IC50 recorded for Cc1cc(C(=O)/N=c2\[nH]c3ccc(CN4CCN(C)CC4)cc3n2CC(C)(C)O)cc(-c2cnn(C)c2)n1 [I-214] .
Output line: false
